Where do the numbers come from? From paper PMC5198511.

assay: LogD7.4 measurement; format: physicochemical; conditions: 1-octanol/phosphate buffer, pH 7.4
reported_endpoint: logD

1. CCNC(=O)[C@H]1O[C@@H](n2cnc3c(N)nc(NCCc4ccc(CCC(=O)O)cc4)nc32)[C@H](O)[C@@H]1O    < -0.8
